The measured values listed here are drawn from PubChem BioAssay.

# Assayed system: Nuclear receptor coactivator 3 (Homo sapiens) (UniProt Q9Y6Q9)
# Sequence (Q9Y6Q9 whole entry, looked up): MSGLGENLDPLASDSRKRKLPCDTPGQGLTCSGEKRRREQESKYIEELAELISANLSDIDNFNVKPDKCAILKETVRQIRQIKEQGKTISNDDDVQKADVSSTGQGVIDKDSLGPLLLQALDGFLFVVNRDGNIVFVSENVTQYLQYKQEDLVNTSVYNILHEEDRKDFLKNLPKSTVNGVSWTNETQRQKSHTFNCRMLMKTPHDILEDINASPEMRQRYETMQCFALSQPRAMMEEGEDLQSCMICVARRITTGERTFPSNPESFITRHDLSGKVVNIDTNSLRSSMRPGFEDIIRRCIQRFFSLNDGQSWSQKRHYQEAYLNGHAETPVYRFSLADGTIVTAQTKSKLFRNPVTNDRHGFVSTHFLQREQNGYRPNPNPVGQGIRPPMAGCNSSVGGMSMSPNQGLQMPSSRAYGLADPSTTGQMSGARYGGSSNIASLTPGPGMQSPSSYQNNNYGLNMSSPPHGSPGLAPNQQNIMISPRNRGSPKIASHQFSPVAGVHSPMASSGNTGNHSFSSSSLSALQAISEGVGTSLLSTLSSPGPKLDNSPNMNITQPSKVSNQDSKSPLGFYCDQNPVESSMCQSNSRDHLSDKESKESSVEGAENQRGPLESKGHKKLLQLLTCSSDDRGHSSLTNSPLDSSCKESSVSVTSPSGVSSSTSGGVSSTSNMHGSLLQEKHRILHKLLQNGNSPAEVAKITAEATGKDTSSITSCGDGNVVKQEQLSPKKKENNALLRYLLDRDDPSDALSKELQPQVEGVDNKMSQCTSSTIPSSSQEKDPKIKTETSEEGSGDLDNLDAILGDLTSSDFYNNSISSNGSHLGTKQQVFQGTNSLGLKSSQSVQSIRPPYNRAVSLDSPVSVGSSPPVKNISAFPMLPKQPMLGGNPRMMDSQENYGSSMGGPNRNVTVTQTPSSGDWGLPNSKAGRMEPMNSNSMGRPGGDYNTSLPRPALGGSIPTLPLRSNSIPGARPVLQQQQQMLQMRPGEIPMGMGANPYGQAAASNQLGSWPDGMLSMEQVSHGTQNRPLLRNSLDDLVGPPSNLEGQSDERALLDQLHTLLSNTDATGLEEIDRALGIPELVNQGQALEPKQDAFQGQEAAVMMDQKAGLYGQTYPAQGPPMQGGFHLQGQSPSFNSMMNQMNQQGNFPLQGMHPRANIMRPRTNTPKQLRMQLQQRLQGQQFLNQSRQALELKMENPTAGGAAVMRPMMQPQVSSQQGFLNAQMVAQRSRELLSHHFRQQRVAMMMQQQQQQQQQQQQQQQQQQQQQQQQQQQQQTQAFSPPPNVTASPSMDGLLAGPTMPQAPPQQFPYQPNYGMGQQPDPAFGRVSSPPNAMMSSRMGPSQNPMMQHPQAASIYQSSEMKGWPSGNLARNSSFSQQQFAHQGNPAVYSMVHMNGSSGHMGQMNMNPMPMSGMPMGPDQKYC
# Test description: SRC3 coactivator transcriptional activity inhibitors, confirmation, cell-based, luminescence, quadruplicate (AID 588792);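 note: 0% = DMSO treated cells and 100% = gossypol at 36 µM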
# Condition notes: HEK293 GAL4-SRC3 luciferase reporter, at 3.6 µM
The source made the active and inactive calls.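 Rule for the calls: active = mean inhibition over 43.08%, the solvent-only control mean plus 3 SD; inactive = the rest.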
Labels: TRUE = active, FALSE = inactive

Compound	Class name
C[C@]12CC[C@H](O)C[C@H]1CC[C@@H]1[C@@H]2CC[C@]2(C)[C@@H](C3=CC(=O)OC3)CC[C@]12O	TRUE
CCCOC(=O)c1ccc(-[n+]2c(-c3ccccc3)cc(-c3ccccc3)cc2-c2ccccc2)cc1	TRUE
COc1ccc2c(c1)[nH]c1c(C)nccc12	TRUE
c1ccc(-c2cc(-c3ccccc3)[n+](-c3ccccc3)c(-c3ccccc3)c2)cc1	TRUE
CCOc1cccc(=NC2CCCCC2)c2c(C)[nH]c(C)c12	FALSE
Cc1[nH]nc2ccc(-c3cncc(OC[C@@H](N)Cc4c[nH]c5ccccc45)c3)cc12	TRUE
CC1CCC/C=C/C2CC(O)CC2C(O)/C=C/C(=O)O1 (stereo not given)	TRUE
COc1ccc(C[C@H]2NC[C@H](O)[C@H]2OC(C)=O)cc1	TRUE
CC(=O)OC1CC2OC3C=C(C)CCC3(C)C1(C)C21CO1 (stereo not given)	TRUE
COC1CC2C=C(C)C=CC=CC(=O)NC(c3ccccc3)CC=CCCC(O)CC(=O)C2=C1O (stereo not given)	TRUE

----------
The entries below are paired with their reported inhibition.
# Assayed system: Nuclear receptor coactivator 1 (Homo sapiens) (UniProt Q15788)
# Sequence (Q15788 whole entry, looked up): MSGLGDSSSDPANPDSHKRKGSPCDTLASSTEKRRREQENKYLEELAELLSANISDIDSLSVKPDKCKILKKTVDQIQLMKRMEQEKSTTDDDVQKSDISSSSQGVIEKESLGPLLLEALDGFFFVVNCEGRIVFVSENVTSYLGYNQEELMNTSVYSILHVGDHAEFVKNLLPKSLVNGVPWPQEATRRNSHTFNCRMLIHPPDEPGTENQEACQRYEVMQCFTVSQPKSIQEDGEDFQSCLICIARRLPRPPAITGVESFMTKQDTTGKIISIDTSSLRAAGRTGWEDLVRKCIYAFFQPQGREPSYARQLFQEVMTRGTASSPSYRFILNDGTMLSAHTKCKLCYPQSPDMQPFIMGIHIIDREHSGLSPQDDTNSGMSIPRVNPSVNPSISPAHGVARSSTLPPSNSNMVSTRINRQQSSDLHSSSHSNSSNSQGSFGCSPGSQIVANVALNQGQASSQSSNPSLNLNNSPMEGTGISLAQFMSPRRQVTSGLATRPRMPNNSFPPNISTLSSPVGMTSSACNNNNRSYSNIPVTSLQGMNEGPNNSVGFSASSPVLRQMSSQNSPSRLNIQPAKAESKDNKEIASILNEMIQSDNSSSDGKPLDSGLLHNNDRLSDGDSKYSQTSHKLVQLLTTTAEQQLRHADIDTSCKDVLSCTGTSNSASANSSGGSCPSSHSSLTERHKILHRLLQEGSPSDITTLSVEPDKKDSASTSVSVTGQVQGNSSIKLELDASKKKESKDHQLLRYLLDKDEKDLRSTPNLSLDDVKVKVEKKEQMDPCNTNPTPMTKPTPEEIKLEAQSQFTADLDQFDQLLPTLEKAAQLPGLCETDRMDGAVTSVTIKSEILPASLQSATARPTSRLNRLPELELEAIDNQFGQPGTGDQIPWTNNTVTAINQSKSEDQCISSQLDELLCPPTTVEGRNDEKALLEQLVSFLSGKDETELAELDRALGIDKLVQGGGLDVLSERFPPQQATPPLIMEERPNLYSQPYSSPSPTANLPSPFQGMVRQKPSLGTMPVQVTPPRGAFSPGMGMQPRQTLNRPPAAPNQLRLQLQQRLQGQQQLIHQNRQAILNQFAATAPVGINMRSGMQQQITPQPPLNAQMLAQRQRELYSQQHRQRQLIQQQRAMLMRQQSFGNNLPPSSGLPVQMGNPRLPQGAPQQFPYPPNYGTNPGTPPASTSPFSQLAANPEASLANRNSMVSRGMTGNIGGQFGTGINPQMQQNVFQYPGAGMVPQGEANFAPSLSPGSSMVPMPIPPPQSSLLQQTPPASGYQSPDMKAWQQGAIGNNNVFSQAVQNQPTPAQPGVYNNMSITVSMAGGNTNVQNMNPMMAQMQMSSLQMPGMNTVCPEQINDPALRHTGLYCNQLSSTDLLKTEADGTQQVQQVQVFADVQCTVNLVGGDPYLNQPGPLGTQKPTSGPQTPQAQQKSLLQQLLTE
# Test description: SRC1 coactivator transcriptional activity inhibitors, confirmation, cell-based, luminescence, quadruplicate (AID 588820);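 note: 0% = DMSO wells and 100% = gossypol 36 µM treated wells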
# Condition notes: HEK293 GAL4-SRC1 luciferase reporter, at 3.6 µM, hits give high values

Molecule	inhibition, %
CN(C)c1ccc(-[n+]2c(-c3ccccc3)cc(-c3ccccc3)cc2-c2ccccc2)cc1	52.3
CC1=CC2OC3CC4OC(=O)C=CC=CC(C(C)O)OCC(O)C(C)CC(=O)OCC2(CC1O)C4(C)C31CO1 (stereo not drawn)	97.4
CCCCN=C[C@]12CCC(O)CC1(O)CCC1[C@@H]2CC[C@]2(C)[C@H](C3C=CC(=O)O3)CCC12O (stereo partly drawn)	42
COc1cc2c(cc1OC)C1C(=O)c3ccc4c(c3OC1CO2)CC(C(C)C)O4 (stereo not drawn)	-30.2
CC1=CC2OC3CC4OC(=O)C=CC=CC(C(C)O)OCC(O)C5(C)OC5C(=O)OCC2(CC1O)C4(C)C31CO1 (stereo not drawn)	96.5
CCC(C)(C)n1nnnc1CN1CCC(n2c(C)nc3cc(C(F)(F)F)ccc32)CC1	17.3
CC(=O)OC1C(=O)OCC23CCC4(C)OC4C2OC2CC(OC(=O)C=CC=CC(=O)OCCC1C)C3(C)C21CO1 (stereo not drawn)	96.7
CC(=O)OC1CC2(O)C3CCC4CC(O)CCC4(C)C3CCC2(C)C1C1=CC(=O)OC1 (stereo not drawn)	71.4

----------
The entries below are paired with their reported inhibition.
# Assayed system: Nuclear receptor subfamily 5 group A member 2 (Homo sapiens)
# Test description: LRH-1 (NR5A2) inverse agonists, retest, confirmation, cell-based, luminescence (AID 651613);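 note: HEK293T cells co-transfected with LRH-1 and StAR promoter luciferase reporter; 0% = vehicle wells and 100% = parental cells lacking receptor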
# Condition notes: cell-based LRH-1 luciferase reporter, inverse agonism; at 3.6 µM; hits give high values

Compound	inhibition / %
Cn1ncnc2c(=O)n(C)c(=O)nc1-2	92.6
CC1OC(OC2C=C3CCC4C(CCC5(C)C(c6ccc(=O)oc6)CCC45O)C3(C)CC2)C(O)C(OC2OC(CO)C(O)C(O)C2O)C1O (stereo not given)	110
CC12CCC(O)CC1CCC1C2CCC2(C)C(C3=CC(=O)OC3)C(O)CC12O (stereo not given)	94.1
Clc1ccc(C[n+]2c(-c3ccccc3)cc(-c3ccccc3)cc2-c2ccccc2)cc1	110
CC(C)CC(NC(=O)CCCNC(=O)CCC(=O)OC1O[C@H]2OC3(C)CC[C@H]4[C@H](C)CCC(C1C)C24OO3)C(=O)O (stereo not given in full)	101

----------
# Assayed system: Steroidogenic factor 1 (Homo sapiens) (UniProt Q13285)
# Sequence (Q13285 whole entry, looked up): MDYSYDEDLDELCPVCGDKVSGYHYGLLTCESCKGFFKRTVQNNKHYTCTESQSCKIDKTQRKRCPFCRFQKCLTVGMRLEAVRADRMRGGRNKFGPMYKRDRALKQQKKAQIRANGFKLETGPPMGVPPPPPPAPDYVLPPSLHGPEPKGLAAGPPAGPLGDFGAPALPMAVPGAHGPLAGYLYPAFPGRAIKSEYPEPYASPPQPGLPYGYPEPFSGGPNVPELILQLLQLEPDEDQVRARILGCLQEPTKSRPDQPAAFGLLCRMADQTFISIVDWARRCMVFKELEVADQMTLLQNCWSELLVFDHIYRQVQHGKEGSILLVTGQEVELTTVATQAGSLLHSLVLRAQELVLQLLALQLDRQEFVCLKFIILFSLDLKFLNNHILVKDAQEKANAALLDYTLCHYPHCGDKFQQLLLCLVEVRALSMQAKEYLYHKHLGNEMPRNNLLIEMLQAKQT
# Test description: SF1 (NR5A1) inverse agonists, counter-screen for LRH-1 inverse agonist project, cell-based, luminescence, high throughput (AID 651614);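 note: cells cotransfected with StAR promoter reporter and SF1 expression vector; 0% = vehicle on cells with receptor and 100% = vehicle on cells lacking receptor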
# Condition notes: cell-based SF1 luciferase reporter, at 3.6 µM, hits give high values
Kind request: treat 60% as inclusive, so inhibition at 60% or higher is Y, anything lower is N.

Molecule	Class name
CCCCN=C[C@]12CCC(O)CC1(O)CCC1[C@@H]2CC[C@]2(C)[C@H](C3C=CC(=O)O3)CCC12O (some centres not stated)	Y
NC(=S)c1cn(C2OC(CO)C(O)C2O)c2ncnc(N)c12 (configuration not stated)	Y
CCOC(=O)[C@]12Cc3c(cc(OC)c(OC)c3OC)[C@H]1N(C1CCCCC1)C(=O)c1ccccc12	N
CCC(C)C(NC(=O)CCCNC(=O)CCC(=O)OC1O[C@H]2OC3(C)CC[C@H]4[C@H](C)CCC(C1C)C24OO3)C(=O)O (some centres not stated)	Y
N#CCCn1cc(C(=O)Nc2ccc([N+](=O)[O-])cc2)c(-c2ccccc2)n1	N
CCC(C)NC(=O)CCC(=O)OC1O[C@H]2OC3(C)CC[C@H]4[C@H](C)CCC(C1C)C24OO3 (some centres not stated)	Y
COc1ccc(-n2nnnc2C(CCc2ccccc2)N2CCC(n3c(=O)[nH]c4ccccc43)CC2)cc1 (configuration not stated)	N
CC(C)N(C(=O)CCl)c1ccccc1	N
CCC1(OC(=O)CN)C(=O)OCc2c1cc1n(c2=O)Cc2cc3ccccc3nc2-1 (configuration not stated)	Y
COc1ccc(-c2cc(-c3ccccc3)[n+](C)c(-c3ccccc3)c2)cc1	Y
N#CCCn1cc(C(=O)Nc2ccccc2Br)c(-c2ccc([N+](=O)[O-])cc2)n1	N
C[C@H]1CCC/C=C/[C@@H]2C[C@H](O)C[C@H]2[C@@H](O)/C=C/C(=O)O1	Y
Cc1ccc(-c2cc(-c3ccc(C)cc3)[n+](-c3ccccc3)c(-c3ccc(C)cc3)c2)cc1	Y
Cc1ccc(-c2cc(-c3ccccc3)cc(-c3ccccc3)[n+]2-c2ccccc2)cc1	Y
O=c1[nH]c2ccccc2n1C1CCN(C(c2cccc3ccccc23)c2nnnn2Cc2ccccc2)CC1 (configuration not stated)	N
C[C@@H]1O[C@@H](O[C@H]2C[C@@H](O)[C@]3(CO)[C@@H]4C(CC[C@]3(O)C2)[C@@]2(O)CC[C@H](C3COC(=O)C3)[C@@]2(C)C[C@H]4O)[C@H](O)[C@H](O)[C@H]1O (some centres not stated)	Y
CC(=O)OC1(C)CC(C)C(=O)C(C(O)CC2CC(=O)NC(=O)C2)C1 (configuration not stated)	Y
Cc1ccc2c(C)c3ccc4ccccc4c3c[n+]2c1	N
CCOC(=O)[C@]12Cc3ccc(C)cc3[C@H]1N(C1CCCCC1)C(=O)c1cc(OC)ccc12	Y
N#Cc1ccc(Cn2cc(C=O)c3ccccc32)cc1	N
O=Cc1cn(Cc2cccc([N+](=O)[O-])c2)c2ccccc12	Y
CC(C)c1oc(=O)cc2c1[C@@H](O)[C@H]1OC(=O)[C@@]3(C)C[C@@H](O)[C@@H](O)[C@@]2(C)C13 (some centres not stated)	Y
COc1cc2cc(C(=O)N3CC(COS(C)(=O)=O)c4ccc(O)cc43)[nH]c2c(OC)c1OC (configuration not stated)	Y
c1ccc(-c2cc(-c3ccccc3)[n+](-c3ccccc3)c(-c3ccccc3)c2)cc1	Y
O=c1[nH]c2ccccc2n1C1CCN(Cc2ccc(-c3[nH]c4cc5ncnc5cc4nc3-c3ccccc3)cc2)CC1	N
CC(=O)OC1CC(OC2C(O)CC(OC3C(O)CC(OC4CCC5(C)C(CCC6C5CCC5(C)C(C7=CC(=O)OC7)C(O)CC65O)C4)OC3C)OC2C)OC(C)C1OC1OC(CO)C(O)C(O)C1O (configuration not stated)	Y
CCOC(=O)[C@]12Cc3ccc(C)cc3[C@H]1N(C1CCCCC1)C(=O)c1ccccc12	N
Clc1ccc(C[n+]2c(-c3ccccc3)cc(-c3ccccc3)cc2-c2ccccc2)cc1	Y
CNC(=O)c1cccn(Cc2ccc(C(F)(F)F)cc2)c1=O	N
CC12CCC3C(CCC4(O)CC(O)CCC34C=NO)C1(O)CCC2C1=COC(=O)C1 (configuration not stated)	Y
CN1CCN(c2ccc([N+](=O)[O-])c3no[n+]([O-])c23)CC1	Y
CCN(CC)C1=NC(=[N+](CC)CC)c2ccccc21	Y
CC1=CC2OC3CC4OC(=O)C=CC=CC(=O)OCCC(C)C(O)C(=O)OCC2(CC1)C4(C)C31CO1 (configuration not stated)	Y
Cc1ccccc1-[n+]1c(-c2ccccc2)cc(-c2ccccc2)cc1-c1ccccc1	Y

----------
# System: transactivating tegument protein VP16 (Human herpesvirus 1), Gal4-VP16 luciferase reporter
# Test description: VP16 transactivation inhibitors, counter-screen for SRC3 inhibitor project, cell-based, luminescence, high throughput (AID 588794)
# Condition notes: mammalian cells, VP16-driven luciferase reporter luminescence; at 3.6 µM; hits give high values
Kind request: treat 80% as inclusive, so inhibition at 80% or higher is True, anything lower is False.

Compound	Class name
COc1ccc(OC(=O)N(C)C)c(CN(C)C)c1	False
CCC1(OC(=O)CN)C(=O)OCc2c1cc1n(c2=O)Cc2cc3ccccc3nc2-1 (stereo not drawn)	True
CC[C@@]1(O)C(=O)OCc2c1cc1n(c2=O)Cc2cc3c(NC(=O)CN)cccc3nc2-1	False
O=C1/C(=C/c2ccccc2)C[C@@]2(O)[C@H]3Cc4ccc(O)c5c4[C@@]2(CCN3CC2CC2)C1O5 (stereo partly drawn)	False
O=c1[nH]c2ccccc2n1C1CCN(C(c2ccccc2OC(F)(F)F)c2nnnn2-c2ccc3c(c2)OCCO3)CC1 (stereo not drawn)	False
NC(=S)c1cn(C2OC(CO)C(O)C2O)c2ncnc(N)c12 (stereo not drawn)	True
C[C@]12CC[C@H](O)C[C@H]1CC[C@@H]1[C@@H]2C[C@@H](O)[C@]2(C)[C@@H](C3=CC(=O)OC3)CC[C@]12O	False
CC(=O)OC[C@]12CCC(C)=C[C@H]1O[C@@H]1[C@H](O)[C@@H](OC(C)=O)[C@@]2(C)[C@]12CO2	True
CC(=O)OC1CC(OC2C(O)CC(OC3C(O)CC(OC4CCC5(C)C(CCC6C5CC(O)C5(C)C(C7=CC(=O)OC7)CCC65O)C4)OC3C)OC2C)OC(C)C1OC1OC(CO)C(O)C(O)C1O (stereo not drawn)	True
COc1ccc(-n2nnnc2C(CCc2ccccc2)N2CCC(n3c(=O)[nH]c4ccccc43)CC2)cc1 (stereo not drawn)	False
COc1ccc(C[C@H]2NC[C@H](O)[C@H]2OC(C)=O)cc1	True
CSCCC(c1nnnn1-c1ccc2c(c1)OCCO2)N1CCC(n2c(=O)[nH]c3ccccc32)CC1 (stereo not drawn)	False
C=C1C(=O)OC2CC(C)C3C=CC(=O)C3(C)C(O)C12 (stereo not drawn)	True
CCC(C)NC(=O)CCC(=O)OC1O[C@H]2OC3(C)CC[C@H]4[C@H](C)CCC(C1C)C24OO3 (stereo partly drawn)	True
CCC(C)C(NC(=O)CCCNC(=O)CCC(=O)OC1O[C@H]2OC3(C)CC[C@H]4[C@H](C)CCC(C1C)C24OO3)C(=O)O (stereo partly drawn)	False
N#Cc1cn(C2OC(CO)C(O)C2O)c2ncnc(N)c12 (stereo not drawn)	True
O=C(Nc1ccc(OC(=O)N2CCCCC2)cc1)N1CCOCC1	False
c1ccc(-c2[nH]c(-c3ccccc3)[n+](CC3CO3)c2-c2ccccc2)cc1 (stereo not drawn)	False
